measured-target: human trypsin (human, UniProt P07477)
measured-attribute: Trypsin IC50 [nM], inhibition of enzymatic activity, fluorogenic substrate (nM)
Record the value in nM, omitting the unit from your answer.

The value of Trypsin IC50 [nM], inhibition of enzymatic activity, fluorogenic substrate measured for the binder TFPI random (SEQ ID NO: 10) (designed binder) MHSFCAFKAETGPCRAAMKRFFFNIFTRQCEEFIYGGCEGNQNRFESLEECKKMCTRD turned out to be 6

Entry TFPI mut10EA (SEQ ID NO: 28) (designed binder) EAMHSFCAFKAYTGPCRAAIIRFFFNIFTRQCEEFIYGGCEGNQNRFESLEECKKMCTRD ; Trypsin IC50 [nM], inhibition of enzymatic activity, fluorogenic substrate = 17

# Trypsin IC50 [nM], inhibition of enzymatic activity, fluorogenic substrate (binder: TFPI mut7EA (SEQ ID NO: 25) (designed binder) EAMHSFCAFKAYTGPCKARIIRFFFNIFTRQCEEFIYGGCEGNQNRFESLEECKKMCTRD ) is 38

From: patent US20090170766A1
